Attribution: patent US20090118135A1

Molecular target: GST-Bfl-1 (Homo sapiens)
Construct: lacking their C-terminal transmembrane domains (about the last 20 amino acids) (“ΔTM”); made in house; host or cells: XL-1 Blue E. coli, pGEX 4T-1
Sequence (Q16548 1-155 limits assumed): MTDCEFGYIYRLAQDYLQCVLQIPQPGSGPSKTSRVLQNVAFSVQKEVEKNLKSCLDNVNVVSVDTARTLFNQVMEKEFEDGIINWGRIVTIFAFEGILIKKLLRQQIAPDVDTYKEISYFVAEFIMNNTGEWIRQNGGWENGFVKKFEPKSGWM
Experiment: Bfl-1/FITC-Bid BH3 competitive fluorescence polarization assay
Assay type: binding
Settings: primary HTS hits, MLSCN library (PubChem SIDs), Table 5B

{"compound": "Cc1cccc2cc(C(c3nnnn3C(C)(C)C)N(Cc3ccco3)CC3CCCO3)c(O)nc12 (stereo not shown)", "FRatio": 0.95}
{"compound": "C=CCNS(=O)(=O)c1nc(C)c(Cl)c(C)c1C#N", "FRatio": 0.59}
{"compound": "CN(C)c1ccc(NC(=O)CN2C(=O)CN=C(c3ccccc3)c3cc(Cl)ccc32)cc1", "FRatio": 0.84}
{"compound": "COc1ccc(C(=O)Nc2ccc(N3CCCC3)cc2)cc1", "FRatio": 0.85}
{"compound": "CN(C)c1ccc(NC(=O)CN2C(=O)CC(c3ccccc3)=Nc3ccccc32)cc1", "FRatio": 0.6}
{"compound": "CC1(C)CCCN(C(=O)c2coc(=O)c(Br)c2)C1", "FRatio": 0.65}
{"compound": "Cc1ccccc1NC(=O)CSc1nnc(-c2ccco2)c(-c2ccco2)n1", "FRatio": 1.09}
